// provenance: ChEMBL document CHEMBL4765235

Molecular target: Cytochrome P450 2C8 (Homo sapiens, UniProt P10632)
Sequence (P10632 whole entry): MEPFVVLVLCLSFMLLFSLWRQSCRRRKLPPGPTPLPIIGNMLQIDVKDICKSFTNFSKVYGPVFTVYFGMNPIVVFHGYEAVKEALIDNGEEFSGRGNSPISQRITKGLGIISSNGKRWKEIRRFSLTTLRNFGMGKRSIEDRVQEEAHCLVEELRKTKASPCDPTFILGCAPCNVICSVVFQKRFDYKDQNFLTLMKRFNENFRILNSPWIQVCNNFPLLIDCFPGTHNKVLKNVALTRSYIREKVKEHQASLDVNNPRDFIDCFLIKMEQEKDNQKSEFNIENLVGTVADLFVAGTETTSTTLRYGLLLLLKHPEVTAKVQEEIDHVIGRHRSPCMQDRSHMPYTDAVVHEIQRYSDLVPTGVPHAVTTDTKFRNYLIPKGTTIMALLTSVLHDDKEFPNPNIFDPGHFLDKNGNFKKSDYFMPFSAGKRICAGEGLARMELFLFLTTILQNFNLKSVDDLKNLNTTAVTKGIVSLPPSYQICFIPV
readout: pIC50
To interpret pIC50, take it as minus log10 of a concentration measured in moles per litre.

Task: So what does the record say about pIC50 for `COc1ccc(C(NC(=O)c2cnc(-c3cccnn3)nc2O)c2ccc(OC)cc2)cc1` ?
Output: 5.80

---

assay: Metabolic stability in dog liver microsomes assessed as metabolic turnover at 10 uM measured after 60 mins in presence of NADPH; type: ADME, Canis lupus familiaris, Microsome; conditions: read-out: Drug metabolism
readout: metabolised at 1 h, 10 µM

Task: So what does the record say about metabolised at 1 h, 10 µM for `COc1ccc(C(NC(=O)c2cnc(-c3cccnn3)nc2O)c2ccc(OC)cc2)cc1` ?
Output: < 10%

---

test: Half life in rhesus monkey at 1 mg/kg, po or 0.5 mg/kg, iv; format: ADME, organism-based, Macaca mulatta; details: in vivo
Could you please report measured half-life for the items listed next?
Only the number, expressed in h, is required.

Task: So what does the record say about half-life for `CC(C)(NC(=O)c1cnc(-n2cccn2)nc1O)c1ccccc1` ?
Output: 95

Task: One more molecule: `COc1ccc(C(NC(=O)c2cnc(-c3cccnn3)nc2O)c2ccc(OC)cc2)cc1`
Output: 10

---

experiment: Cmax in mouse at 2 mg/kg, po or 1 mg/kg, iv; type: ADME, organism-based; design: dose 2 mg/kg; conditions: in vivo
readout: Cmax

Task: So what does the record say about Cmax for `CC(C)(NC(=O)c1cnc(-n2cccn2)nc1O)c1ccccc1` ?
Output: 30 µM

---

test: Metabolic stability in monkey liver microsomes assessed as metabolic turnover at 10 uM measured after 60 mins in presence of NADPH; type: ADME, Macaca mulatta, Microsome; details: rhesus monkey, read-out: Drug metabolism
readout: metabolised at 1 h, 10 µM

Task: So what does the record say about metabolised at 1 h, 10 µM for `COc1ccc(C(NC(=O)c2cnc(-c3cccnn3)nc2O)c2ccc(OC)cc2)cc1` ?
Output: < 10%

---

Could you please report measured bioavailability for the items listed next?
assay: Oral bioavailability in rat at 2 mg/kg; type: ADME, organism-based; conditions: in vivo
In your response, the unit should come after the numeric value.

Task: So what does the record say about bioavailability for `CC(C)(NC(=O)c1cnc(-n2cc(C(=O)O)cn2)nc1O)c1ccccc1` ?
Output: 3%

Task: One more compound: `O=C(NCc1ccc(F)cc1)c1cnc(-c2ccccn2)nc1O`
Output: 67%

Task: One more compound: `CC(C)(NC(=O)c1cnc(-c2cscn2)nc1O)c1ccccc1`
Output: 61%

Task: One more compound: `CC(C)(NC(=O)c1cnc(-n2cccn2)nc1O)c1ccccc1`
Output: 99%

Task: One more compound: `COc1ccc(C(NC(=O)c2cnc(-c3cccnn3)nc2O)c2ccc(OC)cc2)cc1`
Output: 36%

Task: One more compound: `CC(C)(NC(=O)c1cnc(-c2cc(C(=O)O)ccn2)nc1O)c1ccccc1`
Output: 5%
